system: beta-TC6 cells; assay: Insulin HTRF assay, relative activity Ar normalized to sunitinib; format: cell-based; details: Mus musculus, normalized to positive control sunitinib (5 µM = 100%), Table 10
reported endpoint: Emax

Reference set (5 entries):
Cn1ccc2cc(-c3cn4c(-c5ccc6ncccc6c5)cnc4cn3)ccc21
≥ 100%
COc1ccc(-c2cn3c(-c4cccc(O)c4)cnc3cn2)cn1
20 to 50%
CN1CCN(c2ccc(-c3cn4c(-c5cccc(O)c5)cnc4cn3)cc2)CC1
20 to 50%
CNC(=O)c1ccc(-c2ccc3nnc(-c4ccc(OCCCN(C)C)cc4)n3c2)cc1
20 to 50%
C(=C\c1cnc2cccnn12)/c1ccccc1 [compound 74, 3-[(E)-styryl]imidazo[1,2-b]pyridazine]
20 to 50%

Query: GET /values?readout=Emax&item= Clc1cccc(-c2nnc3ccc(-c4cccnc4)cn23)c1
Result: 50 to 100%

Query: GET /values?readout=Emax&item= Fc1ccc(-c2cn3c(-c4ccsc4)cnc3cn2)cc1Cl
Result: 20 to 50%

Query: GET /values?readout=Emax&item= COCCNc1ccc2ncc(-c3ccc(C(=O)Nc4ccc(OC)cc4)cc3)n2n1
Result: 20 to 50%

Query: GET /values?readout=Emax&item= Fc1cccc(-c2cnc3cnc(-c4cccs4)cn23)c1
Result: 20 to 50%

###

test system: beta-TC6 cell system; experiment: Comparison of insulin release with commercially available inhibitors, mouse/rat insulin ELISA; assay type: cell-based; details: Mus musculus, Beta-TC6; 5µM, 2 h; DMSO = 0; Table 9
reported endpoint: activation at 5 µM (%)
Provide the reading as a plain figure in %.

Reference set (3 entries):
CCN(CC)CCNC(=O)c1c(C)[nH]c(/C=C2\C(=O)Nc3ccc(F)cc32)c1C [Sunitinib, reference compound]
93.3
COc1cc(-c2ccc3ncc(-c4cccnc4)n3n2)cc(OC)c1OC
89.8
NC(=O)c1ccc(-c2cnc3ccc(Cc4ccccc4)nn23)cc1
65.7

// next item, activation at 5 µM requested
Query: // lookup activation at 5 µM | system=beta-TC6 cell system | key= NC(=O)c1ccc(-c2cnc3ccc(Cc4ccc(F)cc4)nn23)cc1
Result: 70.7

###

Test system: beta-TC6 cells
Assay: Insulin HTRF assay, relative activity Ar normalized to sunitinib
Format: cell-based
Conditions: Mus musculus, normalized to positive control sunitinib (5 µM = 100%), Table 10
Protocol: For further screening of compounds derived from compounds described above for their ability to regulate insulin release an insulin HTRF® (Homogeneous Time-Resolved Fluorescence; Cisbio International, France) was used. This assay is based on two antibodies against insulin binding to different epitopes of insulin. […] The HTRF assay is carried out using Greiner 384-well 784075 assay plates. […] Finally HTRF is measured on ViewLux ultra high throughput microplate imager (PerkinElmer). […]
reported endpoint: Emax

CC(=O)Nc1cccc(-c2cn3c(-c4ccc(F)c(Cl)c4)cnc3cn2)c1
20 to 50%

// next item, Emax requested
Query: GET /values?readout=Emax&item= Nc1ccc(-c2ccc3nnc(-c4cccc(C(F)(F)F)c4)n3c2)cn1
Result: 20 to 50%

###

Emax overview
system: beta-TC6 cells; experiment: Insulin HTRF assay, relative activity Ar normalized to sunitinib; format: cell-based; conditions: Mus musculus, normalized to positive control sunitinib (5 µM = 100%), Table 10

Reference set (4 entries):
c1ccc(Oc2ccccc2-c2cn3c(-c4ccncc4)cnc3cn2)cc1
20 to 50%
COc1cc(-c2ccc3nnc(-c4cccc(C(F)(F)F)c4)n3c2)cc(OC)c1OC
50 to 100%
CN(C)C(=O)c1ccc(-c2cnc3cnc(-c4ccc5c(ccn5C)c4)cn23)cc1
20 to 50%
Fc1ccc(-c2cnc3cnc(-c4ccco4)cn23)cc1Cl
20 to 50%

Query: GET /values?readout=Emax&item= OCc1ccc(-c2cnc3ccc(-c4cncnc4)nn23)cc1
Result: 10 to 20%

Query: GET /values?readout=Emax&item= Oc1cccc(-c2nnc3ccc(-c4cccc5ncccc45)cn23)c1
Result: 20 to 50%

Query: GET /values?readout=Emax&item= FC(F)(F)Oc1cccc(-c2cnc3cnc(-c4cccnc4)cn23)c1
Result: 20 to 50%

Query: GET /values?readout=Emax&item= CN(C)c1ccc(-c2cnc3cnc(-c4ccc(C(=O)N5CCOCC5)cc4)cn23)cc1
Result: 20 to 50%

Query: GET /values?readout=Emax&item= c1ccc(-c2cnc3cnc(-c4cccs4)cn23)cc1
Result: 20 to 50%

Query: GET /values?readout=Emax&item= c1ccc(-c2nnc3ccc(-c4ccc5c(c4)OCO5)cn23)cc1
Result: 50 to 100%

Query: GET /values?readout=Emax&item= N#Cc1cccc(-c2nnc3ccc(-c4ccccn4)cn23)c1
Result: 20 to 50%

Query: GET /values?readout=Emax&item= CN1CCN(C(=O)c2cccc(-c3cnc4cnc(-c5ccc6c(ccn6C)c5)cn34)c2)CC1
Result: 20 to 50%

Query: GET /values?readout=Emax&item= COc1ccc(-c2cnc3cnc(-c4cccc(C(N)=O)c4)cn23)cn1
Result: 20 to 50%

Query: GET /values?readout=Emax&item= COc1cc(-c2nnc3ccc(-c4ccccc4C)cn23)ccc1O
Result: 50 to 100%
